Target: T1, ZFP SBS#983 (synthetic)
T1 chain: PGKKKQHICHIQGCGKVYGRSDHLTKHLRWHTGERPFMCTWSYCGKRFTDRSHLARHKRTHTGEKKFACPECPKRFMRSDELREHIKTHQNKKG
Test: EMSA
Settings: tags: MBP fusion
Readout Name: pKd
When answering, recall that pKd equals minus log10 of the concentration in mol/L, and write that number alone.

stdin: Any idea what pKd was measured for CCGGGCTGG (dsDNA) DNA 1: CCGGGCTGG DNA 2: CCAGCCCGG ?
stdout: 8.86

# credit: patent US20030068675
